Data provenance is ChEMBL document CHEMBL1141715.

# Target: Calcium-activated potassium channel subunit alpha-1 (Homo sapiens) (UniProt Q12791)
# Sequence (Q12791 whole entry): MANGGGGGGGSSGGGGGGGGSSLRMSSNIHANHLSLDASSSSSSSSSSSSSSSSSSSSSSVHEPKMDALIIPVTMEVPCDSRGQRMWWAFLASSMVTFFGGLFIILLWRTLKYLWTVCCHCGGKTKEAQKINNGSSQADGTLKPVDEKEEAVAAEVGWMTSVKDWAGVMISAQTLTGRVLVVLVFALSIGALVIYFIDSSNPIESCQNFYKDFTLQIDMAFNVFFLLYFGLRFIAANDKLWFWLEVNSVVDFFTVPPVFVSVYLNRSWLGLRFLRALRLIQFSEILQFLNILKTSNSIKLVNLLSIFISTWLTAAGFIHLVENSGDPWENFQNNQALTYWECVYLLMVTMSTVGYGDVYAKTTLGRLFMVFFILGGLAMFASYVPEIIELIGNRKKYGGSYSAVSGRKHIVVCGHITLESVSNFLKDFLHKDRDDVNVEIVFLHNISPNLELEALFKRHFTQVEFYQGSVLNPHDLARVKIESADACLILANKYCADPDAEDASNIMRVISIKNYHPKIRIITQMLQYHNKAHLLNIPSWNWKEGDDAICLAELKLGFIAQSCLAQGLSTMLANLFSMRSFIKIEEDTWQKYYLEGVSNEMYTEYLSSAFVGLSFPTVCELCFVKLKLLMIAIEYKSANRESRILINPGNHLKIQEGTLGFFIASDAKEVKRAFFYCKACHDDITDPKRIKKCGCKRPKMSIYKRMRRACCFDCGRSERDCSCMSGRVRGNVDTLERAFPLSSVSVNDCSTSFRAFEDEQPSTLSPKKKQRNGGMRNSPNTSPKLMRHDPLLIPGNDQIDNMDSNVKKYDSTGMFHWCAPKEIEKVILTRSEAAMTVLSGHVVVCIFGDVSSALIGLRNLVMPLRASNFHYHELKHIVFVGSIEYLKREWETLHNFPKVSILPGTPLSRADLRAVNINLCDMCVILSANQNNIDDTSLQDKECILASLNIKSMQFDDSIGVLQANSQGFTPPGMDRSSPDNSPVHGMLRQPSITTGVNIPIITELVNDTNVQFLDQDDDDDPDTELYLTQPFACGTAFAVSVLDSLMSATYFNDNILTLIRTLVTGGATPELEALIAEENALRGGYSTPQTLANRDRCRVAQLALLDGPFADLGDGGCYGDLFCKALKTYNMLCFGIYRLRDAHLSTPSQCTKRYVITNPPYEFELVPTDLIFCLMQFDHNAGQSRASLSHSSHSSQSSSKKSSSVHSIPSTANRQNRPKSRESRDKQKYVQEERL
# Assay explanation: Channel opening activity at human BKalpha channel expressed in CHOK1 cells assessed as ionic current amplitude at 30 uM at holding potential of -90 mV by population patch clamp technique relative to untreated control
# Type: cell-based
# Test context: CHO-K1
Entries and their Activity
Endpoint name: Activity (%)

Compound structure string | Target | Observed
COc1ccc(C(=O)Nc2cc3c(cc2C(C)C)CC[C@H]2[C@](C)(C(=O)O)CCC[C@]32C)cc1 | Calcium-activated potassium channel subunit alpha-1 (Homo sapiens) (UniProt Q12791) | 94.1
CC(C)c1cc2c(cc1NC(=O)c1ccc(C(F)(F)F)cc1)[C@@]1(C)CCC[C@@](C)(C(=O)O)[C@@H]1CC2 | Calcium-activated potassium channel subunit alpha-1 (Homo sapiens) (UniProt Q12791) | 128
CC(C)c1cc2c(cc1NC(=O)Nc1cc(Cl)cc(Cl)c1)[C@@]1(C)CCC[C@@](C)(C(=O)O)[C@@H]1CC2 | Calcium-activated potassium channel subunit alpha-1 (Homo sapiens) (UniProt Q12791) | 151
CC(C)c1cc2c(cc1NC(=O)c1cc(C(F)(F)F)cc(C(F)(F)F)c1)[C@@]1(C)CCC[C@@](C)(C(=O)O)[C@@H]1CC2 | Calcium-activated potassium channel subunit alpha-1 (Homo sapiens) (UniProt Q12791) | 81.8
CC(C)c1cc2c(cc1NC(=O)Nc1ccccc1C(F)(F)F)[C@@]1(C)CCC[C@@](C)(C(=O)O)[C@@H]1CC2 | Calcium-activated potassium channel subunit alpha-1 (Homo sapiens) (UniProt Q12791) | 114
CC(=O)Nc1cc2c(cc1C(C)C)CC[C@H]1[C@](C)(C(=O)O)CCC[C@]21C | Calcium-activated potassium channel subunit alpha-1 (Homo sapiens) (UniProt Q12791) | 96.1
CC(C)c1cc2c(cc1NC(=O)Nc1ccc(F)c(Cl)c1)[C@@]1(C)CCC[C@@](C)(C(=O)O)[C@@H]1CC2 | Calcium-activated potassium channel subunit alpha-1 (Homo sapiens) (UniProt Q12791) | 156
CC(C)c1cc2c(cc1NC(=O)c1ccccc1C(F)(F)F)[C@@]1(C)CCC[C@@](C)(C(=O)O)[C@@H]1CC2 | Calcium-activated potassium channel subunit alpha-1 (Homo sapiens) (UniProt Q12791) | 59.4
CC(C)c1cc2c(cc1NC(=O)c1ccc(Cl)cc1)[C@@]1(C)CCC[C@@](C)(C(=O)O)[C@@H]1CC2 | Calcium-activated potassium channel subunit alpha-1 (Homo sapiens) (UniProt Q12791) | 108
CC(C)c1cc2c(cc1NC(=O)Nc1ccccc1)[C@@]1(C)CCC[C@@](C)(C(=O)O)[C@@H]1CC2 | Calcium-activated potassium channel subunit alpha-1 (Homo sapiens) (UniProt Q12791) | 72.7
COc1ccc(Cl)cc1NC(=O)Nc1cc2c(cc1C(C)C)CC[C@H]1[C@](C)(C(=O)O)CCC[C@]21C | Calcium-activated potassium channel subunit alpha-1 (Homo sapiens) (UniProt Q12791) | 94.4
CC(C)c1c(N)cc2c(c1N)CC[C@H]1[C@](C)(C(=O)O)CCC[C@]21C | Calcium-activated potassium channel subunit alpha-1 (Homo sapiens) (UniProt Q12791) | 110
CC(C)c1cc2c(cc1NC(=O)Nc1cc(C(F)(F)F)cc(C(F)(F)F)c1)[C@@]1(C)CCC[C@@](C)(C(=O)O)[C@@H]1CC2 | Calcium-activated potassium channel subunit alpha-1 (Homo sapiens) (UniProt Q12791) | 132
CCCOc1cc2c(cc1C(C)C)CC[C@H]1[C@](C)(C(=O)O)CCC[C@]21C | Calcium-activated potassium channel subunit alpha-1 (Homo sapiens) (UniProt Q12791) | 118
CC(C)c1cc2c(cc1NC(=O)Nc1ccc(Cl)c(C(F)(F)F)c1)[C@@]1(C)CCC[C@@](C)(C(=O)O)[C@@H]1CC2 | Calcium-activated potassium channel subunit alpha-1 (Homo sapiens) (UniProt Q12791) | 168
CC(C)c1cc2c(cc1NC(=S)Nc1cc(C(F)(F)F)cc(C(F)(F)F)c1)[C@@]1(C)CCC[C@@](C)(C(=O)O)[C@@H]1CC2 | Calcium-activated potassium channel subunit alpha-1 (Homo sapiens) (UniProt Q12791) | 240
COc1ccccc1C(=O)Nc1cc2c(cc1C(C)C)CC[C@H]1[C@](C)(C(=O)O)CCC[C@]21C | Calcium-activated potassium channel subunit alpha-1 (Homo sapiens) (UniProt Q12791) | 86.5
CC(C)Oc1cc2c(cc1C(C)C)CC[C@H]1[C@](C)(C(=O)O)CCC[C@]21C | Calcium-activated potassium channel subunit alpha-1 (Homo sapiens) (UniProt Q12791) | 125
CC(C)c1cc2c(cc1OCc1ccc(Cl)cc1)[C@@]1(C)CCC[C@@](C)(C(=O)O)[C@@H]1CC2 | Calcium-activated potassium channel subunit alpha-1 (Homo sapiens) (UniProt Q12791) | 91.6
CCCC(=O)Nc1cc2c(cc1C(C)C)CC[C@H]1[C@](C)(C(=O)O)CCC[C@]21C | Calcium-activated potassium channel subunit alpha-1 (Homo sapiens) (UniProt Q12791) | 92.4
CC(C)c1c(Cl)cc2c(c1Cl)CC[C@H]1[C@](C)(C(=O)O)CCC[C@]21C | Calcium-activated potassium channel subunit alpha-1 (Homo sapiens) (UniProt Q12791) | 180
CCCCCCOc1cc2c(cc1C(C)C)CC[C@H]1[C@](C)(C(=O)O)CCC[C@]21C | Calcium-activated potassium channel subunit alpha-1 (Homo sapiens) (UniProt Q12791) | 78.7
CC(C)c1cc2c(cc1NC(=O)Nc1ccc(F)c(F)c1)[C@@]1(C)CCC[C@@](C)(C(=O)O)[C@@H]1CC2 | Calcium-activated potassium channel subunit alpha-1 (Homo sapiens) (UniProt Q12791) | 139
CC(C)c1cc2c(cc1NC(=O)c1ccccc1)[C@@]1(C)CCC[C@@](C)(C(=O)O)[C@@H]1CC2 | Calcium-activated potassium channel subunit alpha-1 (Homo sapiens) (UniProt Q12791) | 90
CC(C)c1cc2c(cc1OCCCc1ccccc1)[C@@]1(C)CCC[C@@](C)(C(=O)O)[C@@H]1CC2 | Calcium-activated potassium channel subunit alpha-1 (Homo sapiens) (UniProt Q12791) | 93.2
CCNC(=O)Nc1cc2c(cc1C(C)C)CC[C@H]1[C@](C)(C(=O)O)CCC[C@]21C | Calcium-activated potassium channel subunit alpha-1 (Homo sapiens) (UniProt Q12791) | 89.9
CC(C)c1cc2c(cc1NC(=O)c1cccc(C(F)(F)F)c1)[C@@]1(C)CCC[C@@](C)(C(=O)O)[C@@H]1CC2 | Calcium-activated potassium channel subunit alpha-1 (Homo sapiens) (UniProt Q12791) | 92.5
COc1cc2c(cc1C(C)C)CC[C@H]1[C@](C)(C(=O)O)CCC[C@]21C | Calcium-activated potassium channel subunit alpha-1 (Homo sapiens) (UniProt Q12791) | 85.9
CC(C)c1cc2c(cc1NC(=O)Nc1cc(C(F)(F)F)ccc1Cl)[C@@]1(C)CCC[C@@](C)(C(=O)O)[C@@H]1CC2 | Calcium-activated potassium channel subunit alpha-1 (Homo sapiens) (UniProt Q12791) | 128
CC(C)c1cc2c(cc1NC(=O)CN1CCCCC1)[C@@]1(C)CCC[C@@](C)(C(=O)O)[C@@H]1CC2 | Calcium-activated potassium channel subunit alpha-1 (Homo sapiens) (UniProt Q12791) | 107
COc1ccc(NC(=O)Nc2cc3c(cc2C(C)C)CC[C@H]2[C@](C)(C(=O)O)CCC[C@]32C)cc1 | Calcium-activated potassium channel subunit alpha-1 (Homo sapiens) (UniProt Q12791) | 107
CCCCCCCCCOc1cc2c(cc1C(C)C)CC[C@H]1[C@](C)(C(=O)O)CCC[C@]21C | Calcium-activated potassium channel subunit alpha-1 (Homo sapiens) (UniProt Q12791) | 81.8
CC(C)c1cc2c(cc1O)[C@@]1(C)CCC[C@@](C)(C(=O)O)[C@@H]1CC2 | Calcium-activated potassium channel subunit alpha-1 (Homo sapiens) (UniProt Q12791) | 83
